Values compiled from patent US10364242B2.

- subjectOfTest: h-FAAH1 (Fatty Acid Amide Hydrolase) (Homo sapiens (Human), UniProt O00519)
- Sequence (O00519 whole entry): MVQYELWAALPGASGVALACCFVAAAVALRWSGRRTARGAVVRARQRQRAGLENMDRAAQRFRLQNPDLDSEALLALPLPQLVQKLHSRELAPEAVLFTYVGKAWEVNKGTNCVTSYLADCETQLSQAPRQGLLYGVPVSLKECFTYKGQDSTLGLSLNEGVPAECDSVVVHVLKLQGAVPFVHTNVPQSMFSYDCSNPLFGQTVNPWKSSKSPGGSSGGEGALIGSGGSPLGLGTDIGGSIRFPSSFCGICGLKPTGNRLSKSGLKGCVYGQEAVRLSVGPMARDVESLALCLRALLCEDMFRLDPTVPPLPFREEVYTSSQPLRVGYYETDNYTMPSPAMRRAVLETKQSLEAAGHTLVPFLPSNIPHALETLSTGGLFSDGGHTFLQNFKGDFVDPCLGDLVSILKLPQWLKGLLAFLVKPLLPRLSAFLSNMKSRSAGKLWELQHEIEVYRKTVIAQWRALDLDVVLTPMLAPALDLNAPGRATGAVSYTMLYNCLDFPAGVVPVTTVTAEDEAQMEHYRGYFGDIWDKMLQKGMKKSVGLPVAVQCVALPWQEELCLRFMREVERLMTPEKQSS
pIC50: −log10 of the molar value.
reportedProperty: pIC50

Task item: With h-FAAH1 (Fatty Acid Amide Hydrolase) (Homo sapiens (Human), UniProt O00519) as the test system, provide measured pIC50 for this molecule: CCCCc1ccc(OC2CC3CCC(C2)N3S(=O)(=O)c2c(C)n[nH]c2C)cc1 (stereo not shown)
Reply: < 4.52

* * *

- subjectOfTest: UniProtKB Q13510
- Sequence (Q13510 22-395): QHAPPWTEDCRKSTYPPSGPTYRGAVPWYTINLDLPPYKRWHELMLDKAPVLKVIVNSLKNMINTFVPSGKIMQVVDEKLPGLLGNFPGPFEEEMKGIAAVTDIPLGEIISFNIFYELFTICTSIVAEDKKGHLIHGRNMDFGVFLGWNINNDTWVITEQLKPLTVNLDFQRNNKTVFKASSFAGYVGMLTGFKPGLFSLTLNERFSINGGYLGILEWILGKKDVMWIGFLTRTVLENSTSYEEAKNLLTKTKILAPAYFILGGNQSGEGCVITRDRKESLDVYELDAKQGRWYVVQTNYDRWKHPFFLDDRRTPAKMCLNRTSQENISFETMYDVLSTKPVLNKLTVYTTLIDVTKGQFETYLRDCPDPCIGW
pIC50: −log10 of the molar value.
reportedProperty: pIC50

Task item: Please report pIC50 with UniProtKB Q13510 for item CCCCc1ccc(OC2CC3CCC(C2)N3S(=O)(=O)c2c(C)n[nH]c2C)cc1 (stereo not shown) [ARN16186] .
Reply: < 4.52
